Each recorded value in this set is attributed to patent US20250027068.

- target_of_assay: pooled human IgG
observable: Enzyme Activity Endpoint Assay (purified): Fab'2 (ng/µL)
The reply should be a number in ng/µL, with the unit left off.

Query: For the protein PRT-115 (protein) MRNATEAYAKETPKTITSVWTKGVTPPTPEQFRYNGEDVIHAPYLAHQGWYDITKTFDGKDNLLCGAATAGNMLHWWFDQNKTEIERYLKKHPEKQKIIFNNQELFDLKAAIDTKDSQTNSALFNYFRDKAFPNLSARQLGVMPDLVLDMFINGYYLNVTKTQSTDVNRPYQTKDKRGGIFDAVFTRGDQTKLLTARHDLKNKTLNDISTLIKQELTEGKALALSHTYANVSISHVINLWGADFNAEGNLEAIYVTDSDSNASIGMKKYFVGVNAAGKVAISAKKIKGENIGAQVLGLFTLSSGKDIWQKLS , what Enzyme Activity Endpoint Assay (purified): Fab'2 is on record?
Result: 124
